- System: Caco-2 cell monolayer
- Assay Remarks: Cellular accumulation (CA) of flavonoids in Caco-2 cell monolayer
- Details: both sides (CA A to B and CA B to A)
Measured Property: CA

Compound: C[C@@H]1O[C@@H](Oc2c(-c3ccc(O)c(O)c3)oc3cc(O)cc(O)c3c2=O)[C@H](O)[C@H](O)[C@H]1O [Compound 16, Quercitrin]
Tgt: Caco-2 cell monolayer
Measured Property: CA
Result: not detected

Compound: O=c1c(O)c(-c2ccc(O)cc2)oc2cc(O)cc(O)c12 [Compound 12, Kaempferol]
Tgt: Caco-2 cell monolayer
Measured Property: CA
Result: > 6 µmol/g

Compound: O=c1c(O)c(-c2cc(O)c(O)c(O)c2)oc2cc(O)cc(O)c12 [Compound 14, Myricetin]
Tgt: Caco-2 cell monolayer
Measured Property: CA
Result: not detected

Compound: O=C1C[C@@H](c2ccc(O)cc2)Oc2cc(O)cc(O)c21 [Compound 19, Naringenin]
Tgt: Caco-2 cell monolayer
Measured Property: CA
Result: < 5 µmol/g

Compound: O=c1c(-c2ccc(O)cc2)coc2c([C@@H]3O[C@H](CO)[C@@H](O)[C@H](O)[C@H]3O)c(O)ccc12 [Compound 24, Puerarin]
Tgt: Caco-2 cell monolayer
Measured Property: CA
Result: not detected

Compound: O=C1c2c(O)cc(O)cc2OC(c2ccc(O)c(O)c2)C1O (stereo not shown) [Compound 22, Taxifolin]
Tgt: Caco-2 cell monolayer
Measured Property: CA
Result: not detected

Compound: C[C@@H]1O[C@@H](OC[C@H]2O[C@@H](Oc3c(-c4ccc(O)c(O)c4)oc4cc(O)cc(O)c4c3=O)[C@H](O)[C@@H](O)[C@@H]2O)[C@H](O)[C@H](O)[C@H]1O [Compound 17, Rutin]
Tgt: Caco-2 cell monolayer
Measured Property: CA
Result: not detected

Compound: COc1ccc(-c2coc3cc(O)cc(O)c3c2=O)cc1 [Compound 28, Biochanin A]
Tgt: Caco-2 cell monolayer
Measured Property: CA
Result: > 6 µmol/g

Compound: O=c1c(-c2ccc(O)cc2)coc2cc(O)cc(O)c12 [Compound 27, Genistein]
Tgt: Caco-2 cell monolayer
Measured Property: CA
Result: < 5 µmol/g

Compound: O=c1cc(-c2ccc(O)cc2)oc2c([C@@H]3OC[C@H](O)[C@H](O)[C@H]3O)c(O)c([C@@H]3O[C@H](CO)[C@@H](O)[C@H](O)[C@H]3O)c(O)c12 [Compound 8, Schaftoside]
Tgt: Caco-2 cell monolayer
Measured Property: CA
Result: < 0.26 µmol/g

====

- Assay Remarks: Stability of flavonoids in D-Hank's buffer relative to methanol
- Assay type: physicochemical
- Details: 20 μM flavonoid, HPLC peak area in D-Hank's / peak area in methanol × 100%
Measured Property: Relative concentration of flavonoids, D-Hank's/methanol (%)

Smiles Notation: O=c1c(O)c(-c2ccc(O)c(O)c2)oc2cc(O)cc(O)c12
Result Number: 52.10
//
Smiles Notation: C[C@@H]1O[C@@H](Oc2c(-c3ccc(O)c(O)c3)oc3cc(O)cc(O)c3c2=O)[C@H](O)[C@H](O)[C@H]1O
Result Number: 116.67
//
Smiles Notation: O=c1cc(-c2ccc(O)cc2)oc2cc(O)cc(O)c12
Result Number: 41.76
//
Smiles Notation: O=c1cc(-c2ccccc2)oc2cc(O)cc(O)c12
Result Number: 47.63
//
Smiles Notation: O=c1cc(-c2ccccc2)oc2ccccc12
Result Number: 60.10
//
Smiles Notation: O=c1c(-c2ccc(O)cc2)coc2c([C@@H]3O[C@H](CO)[C@@H](O)[C@H](O)[C@H]3O)c(O)ccc12
Result Number: 30.31
//
Smiles Notation: O=c1cc(-c2ccc(O)c(O)c2)oc2cc(O)cc(O)c12
Result Number: 87.51
//
Smiles Notation: O=C1C[C@@H](c2ccc(O)cc2)Oc2cc(O)cc(O)c21
Result Number: 113.93
//
Smiles Notation: COc1ccc([C@@H]2CC(=O)c3c(O)cc(O)cc3O2)cc1O
Result Number: 115.83
//
Smiles Notation: COc1ccc(-c2cc(=O)c3c(OC)c(OC)c(OC)c(OC)c3o2)cc1
Result Number: 12.09
//
Smiles Notation: C[C@@H]1O[C@@H](OC[C@H]2O[C@@H](Oc3c(-c4ccc(O)c(O)c4)oc4cc(O)cc(O)c4c3=O)[C@H](O)[C@@H](O)[C@@H]2O)[C@H](O)[C@H](O)[C@H]1O
Result Number: 66.82

====

- Assay Remarks: Permeability (bidirectional transport) of flavonoids in Caco-2 cell monolayers
- Type: in vitro ADME
- Details: human, Caco-2, apical to basolateral, incubation 60 min, 37 °C, D-Hank's pH 7.4, mean ± SD, n = 3–6
Entries and their measured Papp A→B at 60 min, 40 μM follow.

Compound: O=c1c(O)c(-c2ccc(O)c(O)c2)oc2cc(O)cc(O)c12
Papp A→B at 60 min, 40 μM [×10⁻⁶ cm/s]: 2.55

Compound: COc1ccc(CCC(=O)c2c(O)cc(O[C@@H]3O[C@H](CO)[C@@H](O)[C@H](O)[C@H]3O[C@@H]3O[C@@H](C)[C@H](O)[C@@H](O)[C@H]3O)cc2O)cc1O [Compound 30, Neohesperidin dihydrochalcone]
Papp A→B at 60 min, 40 μM [×10⁻⁶ cm/s]: 4.25

Compound: O=c1c(-c2ccc(O)cc2)coc2cc(O)cc(O)c12
Papp A→B at 60 min, 40 μM [×10⁻⁶ cm/s]: 31.1

====

- System: Caco-2 cell monolayer
- Assay Remarks: Cellular accumulation (CA) of flavonoids in Caco-2 cell monolayer
- Details: accumulated in cell monolayer after transport apical to basolateral, 40 μM, 1 h, normalized to cellular protein, mean ± SD, n = 3
Entries and their measured CA A to B follow.
Measured Property: CA A to B (µmol/g)

Compound: COc1ccc(CCC(=O)c2c(O)cc(O[C@@H]3O[C@H](CO)[C@@H](O)[C@H](O)[C@H]3O[C@@H]3O[C@@H](C)[C@H](O)[C@@H](O)[C@H]3O)cc2O)cc1O [Compound 30, Neohesperidin dihydrochalcone]
Result Number: 0.096
--
Compound: O=c1cc(-c2ccccc2)oc2ccccc12 [Compound 1, Flavone]
Result Number: 1.932
--
Compound: COc1ccc(-c2coc3cc(O)ccc3c2=O)cc1 [Compound 23, Formononetin]
Result Number: 3.819
--
Compound: COc1ccc([C@@H]2CC(=O)c3c(O)cc(O)cc3O2)cc1O [Compound 18, Hesperetin]
Result Number: 1.293
--
Compound: O=c1cc(-c2ccccc2)oc2cc(O)cc(O)c12 [Compound 7, Chrysin]
Result Number: 3.902
--
Compound: O=c1c(-c2ccc(O)cc2)coc2cc(O)ccc12 [Compound 26, Daidzein]
Result Number: 0.500
--
Compound: COc1c(O)cc(O)c2c(=O)cc(-c3ccccc3)oc12 [Compound 3, Wogonin]
Result Number: 1.038
--
Compound: O=c1cc(-c2ccccc2)oc2cc(O)c(O)c(O)c12 [Compound 4, Baicalein]
Result Number: 1.182

====

Entries and their measured Papp A→B at 60 min, 40 μM follow.
- Assay Remarks: Permeability (bidirectional transport) of flavonoids in Caco-2 cell monolayers
- Assay type: in vitro ADME
- Details: human, Caco-2, apical to basolateral, incubation 60 min, 37 °C, D-Hank's pH 7.4, mean ± SD, n = 3–6

Smiles Notation: COc1cc2c(=O)c(-c3ccc(O)cc3)coc2cc1O
Unit: ×10⁻⁶ cm/s
Papp A→B at 60 min, 40 μM: 12.4
--
Smiles Notation: COc1ccc([C@@H]2CC(=O)c3c(O)cc(O)cc3O2)cc1O
Unit: ×10⁻⁶ cm/s
Papp A→B at 60 min, 40 μM: 23.5
--
Smiles Notation: O=c1c(O)c(-c2cc(O)c(O)c(O)c2)oc2cc(O)cc(O)c12
Unit: ×10⁻⁶ cm/s
Papp A→B at 60 min, 40 μM: 0.29
--
Smiles Notation: C[C@@H]1O[C@@H](OC[C@H]2O[C@@H](Oc3c(-c4ccc(O)c(O)c4)oc4cc(O)cc(O)c4c3=O)[C@H](O)[C@@H](O)[C@@H]2O)[C@H](O)[C@H](O)[C@H]1O
Unit: ×10⁻⁶ cm/s
Papp A→B at 60 min, 40 μM: 4.04

====

- Assay Remarks: Permeability (bidirectional transport) of flavonoids in Caco-2 cell monolayers
- Format: in vitro ADME
- Details: human, Caco-2, basolateral to apical, incubation 60 min, 37 °C, D-Hank's pH 7.4, mean ± SD, n = 3–6
Measured Property: Papp B→A at 60 min, 40 μM (×10⁻⁶ cm/s)

Compound: O=c1c(O)c(-c2ccccc2)oc2cc(O)cc(O)c12
Result Number: 1.75
--
Compound: COc1ccc(-c2coc3cc(O)ccc3c2=O)cc1
Result Number: 18.3
--
Compound: COc1cc2c(=O)c(-c3ccc(O)cc3)coc2cc1O
Result Number: 6.23
--
Compound: O=c1c(O)c(-c2ccc(O)cc2)oc2cc(O)cc(O)c12
Result Number: 5.92
--
Compound: COc1ccc(-c2oc3cc(O)cc(O)c3c(=O)c2O)cc1 [Compound 13, Kaempferide]
Result Number: 0.23
--
Compound: O=c1cc(-c2ccc(O)cc2)oc2cc(O)cc(O)c12
Result Number: 16.9
--
Compound: O=c1cc(-c2ccccc2)oc2ccccc12
Result Number: 21.7
--
Compound: O=c1cc(-c2ccc(O)cc2)oc2c([C@@H]3OC[C@H](O)[C@H](O)[C@H]3O)c(O)c([C@@H]3O[C@H](CO)[C@@H](O)[C@H](O)[C@H]3O)c(O)c12 [Compound 8, Schaftoside]
Result Number: 2.81
